Source: PubChem BioAssay (NCI)

# Test system: IGROV1 ovarian
# measurement description: NCI tumour cell line growth inhibition, 48 h; in the data active = GI50 below about 0.43 µM; inactive = the rest
In this exercise, the only acceptable responses are Y for active, N for inactive

Please review the entries below; each comes with its answer.
molecule=CCn1c(-c2nonc2N)nc2c(C#CC(C)(C)O)nc(OCCNC)cc21 system_name="IGROV1 ovarian" classification=N
molecule=OCCNc1ncnc2c1ncn2Cc1cccc(COc2cccc(OCc3cccc(Cn4cnc5c(NCCO)ncnc54)c3)c2)c1 system_name="IGROV1 ovarian" classification=N
molecule=CCCOc1ccc2nc(NC(=O)OC)[nH]c2c1 system_name="IGROV1 ovarian" classification=N
molecule=COc1cc(/C=C2\C(=O)Nc3ccc(N(C)C)cc32)cc(OC)c1OC system_name="IGROV1 ovarian" classification=N
molecule=COc1cc(-c2n/c(=C\c3c(O)[nH]c4ccc(Cl)cc34)cc3c2=Nc2ccccc2-3)ccc1F system_name="IGROV1 ovarian" classification=N

Query: Recorded test outcome, item Fc1cc2[nH]ncc2c2c3c(c(-c4cn[nH]c4C(F)(F)F)nc12)C1CCC3C1 (centres undefined)
Result: N

Query: Recorded test outcome, item Cc1cc2c(cc1C)N(C(=O)CCl)CCN2C(=O)CCl
Result: N

Query: Recorded test outcome, item Cc1[nH]nc(C(=O)n2nc(N)c3ccccc32)c1[N+](=O)[O-]
Result: N

Query: Recorded test outcome, item COc1cc(C(=O)Nc2cc3c(cc2Oc2cc(C)cc(C)c2)C(=O)N(C)[C@@H](CC(=O)N(C)O)C(=O)N3)c(Br)c(OC)c1OC
Result: Y

* * *

# Tested on: HS 578T breast
# measurement description: NCI tumour cell line growth inhibition, 48 h; in the data active = GI50 below about 0.43 µM; inactive = the rest
In this exercise, the only acceptable responses are active, inactive

Query: Recorded test outcome, item Cc1cc(Cl)ccc1Nc1nc(C(F)(F)F)ccc1C(=O)N/N=C/c1ccc([N+](=O)[O-])cc1
Result: inactive

Query: Recorded test outcome, item Cc1cc(S(=O)(=O)NC#N)c(S/C(=N\Nc2ccc([N+](=O)[O-])cc2)c2ccc(Cl)cc2)cc1Cl
Result: inactive

* * *

# Test system: T-47D breast
# measurement description: NCI tumour cell line growth inhibition, 48 h
observed property: TGI (µM)
One number for each entry, in µM.

entry_smiles=CN(C)CCCNC(=O)c1ccc2c(c1)oc1cc3ccccc3c(=O)n12 reported_value=26.7

With those in mind, consider the next molecule.
Query: Fill in the blank: the reported TGI of Cc1cc(C)c(S(=O)(=O)N(CCCN)OCCCON(CCCN)S(=O)(=O)c2c(C)cc(C)cc2C)c(C)c1 is ____.
Result: 3.36

* * *

# System: DU-145 prostate
# measurement description: NCI tumour cell line growth inhibition, 48 h
Record form. Attribute: TGI. Fill in for each entry.

Examples with answers:
compound="CCc1c(CNc2ccc(C(=O)NC(CC(=O)O)C(=O)O)cc2)ccc2nc(N)nc(N)c12 (stereo not drawn)" reported_value="> 1000 µM"
compound=COc1cc2c(=O)n(CCN)c3c4cc5c(cc4ccc3c2cc1OC)OCO5 reported_value="1.83 µM"

With those in mind, consider the next compound.
Query: Fill in the blank: the reported TGI of CC(C)C(=O)C(C)(C)CCc1ccccn1 is ____.
Result: > 100 µM

* * *

# Tested on: SF-268 CNS
# measurement description: NCI tumour cell line growth inhibition, 48 h; in the data active means GI50 below about 0.43 µM; inactive means the rest
In this exercise, the only acceptable responses are t = active, f = inactive

compound=Cc1cc(S(=O)(=O)NC#N)c(S/C(=N\Nc2ccc([N+](=O)[O-])cc2)c2ccc(Cl)cc2)cc1Cl classification=f

Query: Recorded test outcome, item CC[PH+](CC)CC.O=COC1OC([S-])C(OC=O)C(OC=O)C1OC=O.[Au+] (stereo unspecified)
Result: f

Query: Recorded test outcome, item CC[O-].CC[O-].O=S(=O)([O-])c1ccc([O-])c2ncccc12.O=S(=O)([O-])c1ccc([O-])c2ncccc12.[Ti+4]
Result: f

Query: Recorded test outcome, item C/C=C1\NC(=O)[C@H]2CSSCCC=C[C@H](CC(=O)N[C@H](C(C)C)C(=O)N2)OC(=O)[C@H](C(C)C)NC1=O
Result: t

Query: Recorded test outcome, item Cc1sc2nc3c4ccccc4c(NCCCN(C)C)nn3c(=O)c2c1C
Result: f

Query: Recorded test outcome, item COc1cc(-c2cn(-c3ccc(Cl)c(Cl)c3)c(=O)n2C(C)=O)cc(OC)c1OC
Result: f

Query: Recorded test outcome, item Cc1ccc2nc(-c3ccc(N(C)C)c(Br)c3)cn2c1
Result: f

Query: Recorded test outcome, item Nc1ccccc1C#C/C=C\C#Cc1ccccc1
Result: f

Query: Recorded test outcome, item COc1ccc(Cn2c3c(cc(OS(=O)(=O)C(F)(F)F)c2=O)Cc2ccccc2-3)cc1
Result: f

Query: Recorded test outcome, item CCOc1cc(/C=N\Nc2nnc(C)n2N)c(C)cc1N(CCCl)CCCl
Result: f

Query: Recorded test outcome, item COc1ccc(C2=NN(C=O)C(c3cccc(Nc4ccnc5cc(Cl)ccc45)c3)C2)cc1 (stereo unspecified)
Result: f
